Task for the reader: assign each of the following binders its reported SPOT peptide array binding signal intensity.
Assayed Target: CaLsb4
Test Summary: SPOT peptide array binding signal intensity (averaged, normalized) (arbitrary units (background-subtracted, floor 0; scale differs between SH3 domains)); higher = stronger binding of the SH3 domain to the peptide
Give bare numbers.

As a guide, the following entries are already answered.
Binder	Experimental Value
LLGRKRPVMERVVDI	163
WRPRIVPILPYITRL	56
PKMLPIPSKPTLFDL	209
TEVPIPRRPPPPQAA	210
KKAPPPVVKPKPRNF	15.5

Would you mind giving SPOT peptide array binding signal intensity for every binder in the list below?
1. RRLRDKYKLPIVDAD
2. LEFRAILFIPKRAPF
3. IKKRNKIRLPSGSPE
4. ALRRRLPVTRSKINW
5. QRKSLRRPTLSKPAV

[13, 81, 79, 195, 89.5]

Would you mind giving SPOT peptide array binding signal intensity for every binder in the list below?
1. LASNSPPVYPKRIRH
2. NGRRRPKFRVQLSGN

771
238
